MEASUREMENT_TARGET: furin, P09958;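 note: purified furin at 1:10 enzyme:substrate in 50 mM HEPES pH 7.5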
Sequence (P09958 whole entry): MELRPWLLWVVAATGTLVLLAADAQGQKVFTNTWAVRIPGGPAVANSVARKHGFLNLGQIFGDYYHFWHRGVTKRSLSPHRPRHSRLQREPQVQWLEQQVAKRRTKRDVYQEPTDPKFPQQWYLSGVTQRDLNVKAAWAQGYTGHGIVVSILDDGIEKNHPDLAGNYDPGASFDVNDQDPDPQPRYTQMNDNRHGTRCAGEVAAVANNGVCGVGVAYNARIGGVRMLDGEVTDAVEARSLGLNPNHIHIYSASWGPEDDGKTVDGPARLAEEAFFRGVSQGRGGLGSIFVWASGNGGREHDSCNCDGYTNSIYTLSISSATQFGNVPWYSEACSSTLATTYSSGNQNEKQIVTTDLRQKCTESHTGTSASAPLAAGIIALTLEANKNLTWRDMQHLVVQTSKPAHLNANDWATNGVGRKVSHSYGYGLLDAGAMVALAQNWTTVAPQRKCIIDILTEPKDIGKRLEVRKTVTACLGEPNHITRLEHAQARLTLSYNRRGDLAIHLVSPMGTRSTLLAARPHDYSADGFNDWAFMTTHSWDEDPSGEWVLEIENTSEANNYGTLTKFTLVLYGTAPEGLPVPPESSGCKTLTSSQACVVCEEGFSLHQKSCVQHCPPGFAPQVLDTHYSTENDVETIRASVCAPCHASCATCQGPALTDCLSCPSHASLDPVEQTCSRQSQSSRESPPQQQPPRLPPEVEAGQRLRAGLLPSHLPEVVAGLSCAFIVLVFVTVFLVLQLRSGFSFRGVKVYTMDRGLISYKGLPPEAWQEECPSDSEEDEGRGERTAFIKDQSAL
PROTOCOL_DETAILS: furin cleavage Z-score vs untreated control; higher = more cleavage, active = 3.5 or more, inactive = 1 or less, 8 variable residues between constant flanks
CONDITION: 30 min
The other results are listed elsewhere or left out. The true hit rate is not given.
Labels: active, inactive

{"RESIDUE_STRING": "CARVKRDLVLAGNASASA [FS-2317]", "QUALITATIVE_LABEL": "active"}
{"RESIDUE_STRING": "CAMEECEQHLAGNASASA [HC33]", "QUALITATIVE_LABEL": "inactive"}
{"RESIDUE_STRING": "CAVVCCSRSYAGNASASA [HC2053]", "QUALITATIVE_LABEL": "inactive"}
{"RESIDUE_STRING": "CARLYRSLGEAGNASASA [FS-2045]", "QUALITATIVE_LABEL": "active"}
{"RESIDUE_STRING": "CARYCRGVSAAGNASASA [FS-1941]", "QUALITATIVE_LABEL": "inactive"}
{"RESIDUE_STRING": "CAIEPRSFSQAGNASASA [TR3]", "QUALITATIVE_LABEL": "inactive"}
{"RESIDUE_STRING": "CALLLTTTQWAGNASASA [HC493]", "QUALITATIVE_LABEL": "inactive"}
{"RESIDUE_STRING": "CAGDDLVVICAGNASASA [HC1529]", "QUALITATIVE_LABEL": "inactive"}
{"RESIDUE_STRING": "CARNKKDVNLAGNASASA [FS-2726]", "QUALITATIVE_LABEL": "inactive"}
{"RESIDUE_STRING": "CAVVCCSWSYAGNASASA [HC2048]", "QUALITATIVE_LABEL": "inactive"}
{"RESIDUE_STRING": "CATIFKIRMYAGNASASA [HC473]", "QUALITATIVE_LABEL": "inactive"}
{"RESIDUE_STRING": "CARVKRVLMGAGNASASA [FS-2618]", "QUALITATIVE_LABEL": "inactive"}
{"RESIDUE_STRING": "CAFKTWLKAKAGNASASA [HC1156]", "QUALITATIVE_LABEL": "inactive"}
{"RESIDUE_STRING": "CAEVPCHRPAAGNASASA [HC2403]", "QUALITATIVE_LABEL": "inactive"}
{"RESIDUE_STRING": "CAGGCSGGAYAGNASASA [HC812]", "QUALITATIVE_LABEL": "inactive"}
{"RESIDUE_STRING": "CADIIICDECAGNASASA [HC816]", "QUALITATIVE_LABEL": "inactive"}
{"RESIDUE_STRING": "CARAERRPRRAGNASASA [FS-1059]", "QUALITATIVE_LABEL": "active"}
{"RESIDUE_STRING": "CARVKRSLGEAGNASASA [FS-1977]", "QUALITATIVE_LABEL": "active"}
{"RESIDUE_STRING": "CARVKRSPGLAGNASASA [FS-2387]", "QUALITATIVE_LABEL": "active"}
{"RESIDUE_STRING": "CADPTFTIETAGNASASA [HC894]", "QUALITATIVE_LABEL": "inactive"}
{"RESIDUE_STRING": "CARRHRRPRRAGNASASA [FS-1074]", "QUALITATIVE_LABEL": "active"}
{"RESIDUE_STRING": "CAAAQLAAPGAGNASASA [HC1069]", "QUALITATIVE_LABEL": "inactive"}
{"RESIDUE_STRING": "CARYRRCVGWAGNASASA [FS-2389]", "QUALITATIVE_LABEL": "active"}
{"RESIDUE_STRING": "CARRHRTYRWAGNASASA [FS-864]", "QUALITATIVE_LABEL": "active"}
{"RESIDUE_STRING": "CARMCRVAGWAGNASASA [FS-2046]", "QUALITATIVE_LABEL": "inactive"}
